# Tested on: Staph. aureus 133
# Format: cell-based, Staphylococcus aureus
# test-parameters: Staph. aureus 133; 24 hours, 37°C
measured-endpoint: MIC

Before answering, review these 2 worked examples.
molecule: CC(C)(CN=[N+]=[N-])C(=O)Nc1ccc(C(=O)N[C@@H](C(=O)N[C@@H]2C(=O)N3[C@@H]2SC(C)(C)[C@@H]3C(=O)O)c2ccccc2)cc1 [Example 39]
MIC: < 1 U/ml

molecule: CC1(C)S[C@@H]2[C@H](NC(=O)[C@H](NC(=O)c3ccc(NC(=O)Nc4ccc(F)cc4)cc3)c3ccccc3)C(=O)N2[C@H]1C(=O)O [Example 46]
MIC: < 1 U/ml

Note: attention shifts to another entry.
I have this molecule here, CC1(C)S[C@@H]2[C@H](NC(=O)[C@H](NC(=O)c3ccc(NC(=O)C4CCC=CCC4)cc3)c3ccccc3)C(=O)N2[C@H]1C(=O)O [Example 14] , and I need its recorded MIC.
< 1 U/ml

* * *

# System: Klebsiella K 10
# method-summary: MIC, test tube series dilution test, Klebsiella K 10
# Type: cell-based
# test-parameters: 24 hours, 37°C
measured-endpoint: MIC

molecule: CC(N=[N+]=[N-])C(=O)Nc1ccc(C(=O)N[C@@H](C(=O)N[C@@H]2C(=O)N3[C@@H]2SC(C)(C)[C@@H]3C(=O)O)c2ccccc2)cc1 (some centres unmarked)
experimental-result: 64 U/ml
--
molecule: COc1ccc(C(=O)Nc2ccc(C(=O)N[C@@H](C(=O)N[C@@H]3C(=O)N4[C@@H]3SC(C)(C)[C@@H]4C(=O)O)c3ccccc3)cc2)cc1
experimental-result: 32 U/ml

I have this molecule here, CC1(C)S[C@@H]2[C@H](NC(=O)[C@H](NC(=O)c3ccc(NC(=O)C4CCCC4)cc3)c3ccccc3)C(=O)N2[C@H]1C(=O)O , and I need its recorded MIC.
32 U/ml

I have this molecule here, CC1(C)S[C@@H]2[C@H](NC(=O)[C@H](NC(=O)c3ccc(NC(=O)C4=CCCCC4)cc3)c3ccccc3)C(=O)N2[C@H]1C(=O)O , and I need its recorded MIC.
64 U/ml

I have this molecule here, CC1(C)S[C@@H]2[C@H](NC(=O)[C@H](NC(=O)c3ccc(NC(=O)c4ccc([N+](=O)[O-])cc4)cc3)c3ccccc3)C(=O)N2[C@H]1C(=O)O , and I need its recorded MIC.
16 U/ml

I have this molecule here, CC1(C)S[C@@H]2[C@H](NC(=O)[C@H](NC(=O)c3ccc(NC(=O)C4CC=CCC4)cc3)c3ccccc3)C(=O)N2[C@H]1C(=O)O (single isomer, unassigned) , and I need its recorded MIC.
32 U/ml

I have this molecule here, COc1cc(OC)cc(C(=O)Nc2ccc(C(=O)N[C@@H](C(=O)N[C@@H]3C(=O)N4[C@@H]3SC(C)(C)[C@@H]4C(=O)O)c3ccccc3)cc2)c1 , and I need its recorded MIC.
64 U/ml

I have this molecule here, CC1(C)S[C@@H]2[C@H](NC(=O)[C@H](N)c3ccccc3)C(=O)N2[C@H]1C(=O)O [Ampicillin, D(-)-α-aminobenzylpenicillin, reference compound] , and I need its recorded MIC.
128 U/ml

* * *

# Tested on: Staph. aureus 133
# Assay type: cell-based, Staphylococcus aureus
# test-parameters: Staph. aureus 133; 24 hours, 37°C
measured-endpoint: MIC

Before answering, review these 2 worked examples.
molecule: CC1(C)S[C@@H]2[C@H](NC(=O)[C@H](NC(=O)c3ccc(NC(=O)C4CC=CCC4)cc3)c3ccccc3)C(=O)N2[C@H]1C(=O)O (single isomer, unassigned) [Example 12]
MIC: < 1 U/ml

molecule: CC1(C)S[C@@H]2[C@H](NC(=O)[C@H](NC(=O)c3cc(NC(=O)C4CC4)ccc3Cl)c3ccccc3)C(=O)N2[C@H]1C(=O)O [Example 53]
MIC: < 1 U/ml

Note: attention shifts to another entry.
I have this molecule here, COCC(=O)Nc1ccc(C(=O)N[C@@H](C(=O)N[C@@H]2C(=O)N3[C@@H]2SC(C)(C)[C@@H]3C(=O)O)c2ccccc2)cc1 [Example 42] , and I need its recorded MIC.
< 1 U/ml

* * *

MIC values for the molecules below.
# Tested on: E. coli 183/58
# method-summary: MIC, test tube series dilution test, E. coli 183/58
# Assay type: cell-based
# test-parameters: 24 hours, 37°C
Give a bare numeral; the unit U/ml is implied.

Before answering, review these 2 worked examples.
molecule: CC1(C)S[C@@H]2[C@H](NC(=O)[C@H](NC(=O)c3ccc(NC(=O)c4ccc(F)cc4)cc3)c3ccccc3)C(=O)N2[C@H]1C(=O)O [Example 17]
units-label: U/ml
experimental-result: 8

molecule: CC1(C)S[C@@H]2[C@H](NC(=O)[C@H](NC(=O)c3ccc(NC(=O)CCN=[N+]=[N-])cc3)c3ccccc3)C(=O)N2[C@H]1C(=O)O [Example 38]
units-label: U/ml
experimental-result: 16

I have this molecule here, CC1(C)S[C@@H]2[C@H](NC(=O)[C@H](NC(=O)c3ccc(NC(=O)c4ccc([N+](=O)[O-])cc4)cc3)c3ccccc3)C(=O)N2[C@H]1C(=O)O [Example 28] , and I need its recorded MIC.
4

I have this molecule here, CC1(C)S[C@@H]2[C@H](NC(=O)[C@H](NC(=O)c3ccc(NC(=O)CC4C=CCC4)cc3)c3ccccc3)C(=O)N2[C@H]1C(=O)[O-].[Na+] (stereo partly drawn) [Example 8] , and I need its recorded MIC.
16

I have this molecule here, CC1(C)S[C@@H]2[C@H](NC(=O)[C@H](NC(=O)c3ccc(NC(=O)C4CCC4)cc3)c3ccccc3)C(=O)N2[C@H]1C(=O)O [Example 5] , and I need its recorded MIC.
32

* * *

MIC values for the compounds below.
# System: Staph. aureus 133
# Assay type: cell-based, Staphylococcus aureus
# test-parameters: Staph. aureus 133; 24 hours, 37°C

sample-smiles: CC1(C)S[C@@H]2[C@H](NC(=O)[C@H](NC(=O)c3ccc(NC(=O)C4CCCC4)cc3)c3ccccc3)C(=O)N2[C@H]1C(=O)O
MIC: < 1 U/ml

sample-smiles: CC1(C)S[C@@H]2[C@H](NC(=O)[C@H](NC(=O)c3ccc(N)cc3)c3ccccc3)C(=O)N2[C@H]1C(=O)O
MIC: < 1 U/ml

// map COc1cc(C(=O)Nc2ccc(C(=O)N[C@@H](C(=O)N[C@@H]3C(=O)N4[C@@H]3SC(C)(C)[C@@H]4C(=O)O)c3ccccc3)cc2)cc(OC)c1OC to recorded MIC (system: Staph. aureus 133)
< 1 U/ml

// map CC1(C)S[C@@H]2[C@H](NC(=O)[C@H](NC(=O)c3ccc(NC(=O)C4CCC4)cc3[N+](=O)[O-])c3ccccc3)C(=O)N2[C@H]1C(=O)O to recorded MIC (system: Staph. aureus 133)
< 1 U/ml

// map CC1(C)S[C@@H]2[C@H](NC(=O)[C@H](NC(=O)c3ccc(NC(=O)c4ccc([N+](=O)[O-])cc4)cc3[N+](=O)[O-])c3ccccc3)C(=O)N2[C@H]1C(=O)O to recorded MIC (system: Staph. aureus 133)
< 1 U/ml

// map CC1(C)S[C@@H]2[C@H](NC(=O)[C@H](NC(=O)CSc3ccc(NC(=O)C4CCC4)cc3)c3ccccc3)C(=O)N2[C@H]1C(=O)O to recorded MIC (system: Staph. aureus 133)
< 1 U/ml

// map CC1(C)S[C@@H]2[C@H](NC(=O)[C@H](NC(=O)c3ccc(NC(=O)C4=CCCCC4)cc3)c3ccccc3)C(=O)N2[C@H]1C(=O)O to recorded MIC (system: Staph. aureus 133)
< 1 U/ml

* * *

# Test system: Klebsiella 63
# method-summary: MIC, test tube series dilution test, Klebsiella 63
# Format: cell-based
# test-parameters: Klebsiella 63; 24 hours, 37°C
MIC values for the molecules below.
Give a bare numeral; the unit U/ml is implied.

molecule: CC1(C)S[C@@H]2[C@H](NC(=O)[C@H](NC(=O)c3ccc(NC(=O)C4CC4)cc3)c3ccccc3)C(=O)N2[C@H]1C(=O)O [Example 1]
measured-endpoint: MIC
units-label: U/ml
experimental-result: 64

Note: attention shifts to another entry.
I have this molecule here, CC1(C)S[C@@H]2[C@H](NC(=O)[C@H](NC(=O)c3ccc(NC(=O)c4ccc([N+](=O)[O-])cc4)cc3)c3ccccc3)C(=O)N2[C@H]1C(=O)O [Example 28] , and I need its recorded MIC.
16

* * *

# Test system: E. coli 14
# Assay type: cell-based
# test-parameters: 24 hours' incubation
Activity against E. coli 14 (minimum inhibitory concentration) values for the compounds below.

Before answering, review these 4 worked examples.
sample-smiles: CC1(C)S[C@@H]2[C@H](NC(=O)[C@H](NC(=O)c3ccc(NC(=O)C4CCCC4)cc3O)c3ccccc3)C(=O)N2[C@H]1C(=O)O
experimental-result: 2-4 U/ml
--
sample-smiles: CC1(C)S[C@@H]2[C@H](NC(=O)[C@H](NC(=O)c3ccc(NC(=O)c4ccc(S(C)(=O)=O)cc4)cc3)c3ccccc3)C(=O)N2[C@H]1C(=O)O
experimental-result: 4-8 U/ml
--
sample-smiles: COc1cc(C=CC(=O)Nc2ccc(C(=O)N[C@@H](C(=O)N[C@@H]3C(=O)N4[C@@H]3SC(C)(C)[C@@H]4C(=O)O)c3ccccc3)cc2)cc(OC)c1OC
experimental-result: 2-4 U/ml
--
sample-smiles: CC1(C)S[C@@H]2[C@H](NC(=O)[C@H](NC(=O)c3ccc(NC(=O)C4CCCC4)cc3)c3ccc(O)cc3)C(=O)N2[C@H]1C(=O)O
experimental-result: 4-8 U/ml

Note: attention shifts to another entry.
// map COc1cc(C(=O)Nc2ccc(C=CC(=O)N[C@@H](C(=O)N[C@@H]3C(=O)N4[C@@H]3SC(C)(C)[C@@H]4C(=O)O)c3ccccc3)cc2)cc(OC)c1OC to recorded Activity against E. coli 14 (minimum inhibitory concentration) (system: E. coli 14)
1-2 U/ml
